# System: NCI-H1793
# test-details: relative viability (nuclei count vs DMSO), 5 days (fraction); higher = more cells survive
# conditions-used: first compound 0.4 µM
Define the label as fulfilled when relative viability is strictly less than 0.5 and as not fulfilled in all remaining cases.

Example entries and their recorded answers appear below.
# compound, group
rows = [
    ("Clc1ccc(Nc2nnc(Cc3ccncc3)c3ccccc23)cc1 [Vatalanib] + CC(=O)c1c(C)c2cnc(Nc3ccc(N4CCNCC4)cn3)nc2n(C2CCCC2)c1=O [Palbociclib] (partner 0.5 µM)", "fulfilled"),
    ("COc1cc(N2CCC(C(N)=O)CC2)ccc1Nc1nc(N)c(Cl)c(Nc2ccccc2S(=O)(=O)C(C)C)n1 [HG-5-88-01] + Nc1nc2[nH]cc(CCc3ccc(C(=O)N[C@@H](CCC(=O)O)C(=O)O)cc3)c2c(=O)[nH]1 [Pemetrexed] (partner 0.2 µM)", "not fulfilled"),
    ("C[C@@H]1CN(CC(=O)Nc2ccc3c(c2)Cc2cccc(-c4cc(=O)cc(N5CCOCC5)o4)c2S3)C[C@H](C)O1 + C[C@]1(O)C[C@@H](c2nc(-c3ccc4ccc(-c5ccccc5)nc4c3)c3c(N)nccn32)C1 [Linsitinib] (partner 1 µM)", "not fulfilled"),
]

Exam item: For this compound, is relative viability lower than 0.5? COc1cc(N2CCC(C(N)=O)CC2)ccc1Nc1nc(N)c(Cl)c(Nc2ccccc2S(=O)(=O)C(C)C)n1 [HG-5-88-01] + COc1cccc2cc(-c3nc([C@H]4CC[C@H](C(=O)O)CC4)n4ncnc(N)c34)[nH]c12 [OSI-027] (partner 0.5 µM)
Marked response: fulfilled

Exam item: For this compound, is relative viability lower than 0.5? C[C@@H]1CN(CC(=O)Nc2ccc3c(c2)Cc2cccc(-c4cc(=O)cc(N5CCOCC5)o4)c2S3)C[C@H](C)O1 + NC(=O)Nc1cc(-c2cccc(F)c2)sc1C(=O)N[C@H]1CCCNC1 [AZD7762] (partner 0.2 µM)
Marked response: fulfilled

Exam item: For this compound, is relative viability lower than 0.5? COc1cc(N2CCC(C(N)=O)CC2)ccc1Nc1nc(N)c(Cl)c(Nc2ccccc2S(=O)(=O)C(C)C)n1 [HG-5-88-01] + CCNC(=O)c1noc(-c2cc(C(C)C)c(O)cc2O)c1-c1ccc(CN2CCOCC2)cc1 [Luminespib] (partner 0.01 µM)
Marked response: fulfilled

Exam item: For this compound, is relative viability lower than 0.5? C[C@@H]1CN(CC(=O)Nc2ccc3c(c2)Cc2cccc(-c4cc(=O)cc(N5CCOCC5)o4)c2S3)C[C@H](C)O1 + COc1cc2c(Oc3ccc(NC(=O)C4(C(=O)Nc5ccc(F)cc5)CC4)cc3F)ccnc2cc1OCCCN1CCOCC1 [Foretinib] (partner 0.25 µM)
Marked response: not fulfilled

###

# Tested on: NCI-H358
# test-details: relative viability (nuclei count vs DMSO), 5 days (fraction); higher = more cells survive
# conditions-used: first compound 0.04 µM
Define the label as YES when relative viability is strictly less than 0.5 and as NO in all remaining cases.

# compound, group
measured = [
    ("C[C@@H]1CN(CC(=O)Nc2ccc3c(c2)Cc2cccc(-c4cc(=O)cc(N5CCOCC5)o4)c2S3)C[C@H](C)O1 + COc1cccc2cc(-c3nc([C@H]4CC[C@H](C(=O)O)CC4)n4ncnc(N)c34)[nH]c12 [OSI-027] (partner 0.5 µM)", "NO"),
    ("C[C@@H]1CN(CC(=O)Nc2ccc3c(c2)Cc2cccc(-c4cc(=O)cc(N5CCOCC5)o4)c2S3)C[C@H](C)O1 + Cc1nc(Nc2ncc(C(=O)Nc3c(C)cccc3Cl)s2)cc(N2CCN(CCO)CC2)n1 [Dasatinib] (partner 0.075 µM)", "YES"),
    ("Clc1ccc(Nc2nnc(Cc3ccncc3)c3ccccc23)cc1 [Vatalanib] + C[C@@H](Oc1cc(-c2cnn(C3CCNCC3)c2)cnc1N)c1c(Cl)ccc(F)c1Cl [Crizotinib] (partner 1 µM)", "NO"),
]

Lab note: next compound to report on.
Exam item: For this compound, is relative viability lower than 0.5? Clc1ccc(Nc2nnc(Cc3ccncc3)c3ccccc23)cc1 [Vatalanib] + O=C(CCCCCCC(=O)Nc1ccccc1)NO [Vorinostat] (partner 1 µM)
Marked response: NO

###

# Test system: HCC-78
# test-details: relative viability (nuclei count vs DMSO), 5 days (fraction); higher = more cells survive
# conditions-used: first compound 0.01 µM
property-label: relative viability
Give the value as a plain number.

# molecule, relative viability
rows = [
    ("CC(C)Oc1cc(Nc2nc(N[C@@H](C)c3ccc(F)cn3)ncc2Cl)n[nH]1 [AZ23] + C[C@]1(O)C[C@@H](c2nc(-c3ccc4ccc(-c5ccccc5)nc4c3)c3c(N)nccn32)C1 [Linsitinib] (partner 1 µM)", 0.495),
]

Exam item: Record CC(C)Oc1cc(Nc2nc(N[C@@H](C)c3ccc(F)cn3)ncc2Cl)n[nH]1 [AZ23] + Nc1nc2[nH]cc(CCc3ccc(C(=O)N[C@@H](CCC(=O)O)C(=O)O)cc3)c2c(=O)[nH]1 [Pemetrexed] (partner 0.2 µM) : what is its relative viability with HCC-78?
Marked response: 0.976

###

# Tested on: LOU-NH91
# test-details: relative viability (nuclei count vs DMSO), 5 days (fraction); higher = more cells survive
# conditions-used: first compound 0.8 µM
property-label: relative viability
Give the value as a plain number.

Answered cases to consult:
# molecule, relative viability
records = [
    ("CCCCCCCCCCCC1=C(O)C(=O)C=C(O)C1=O [Embelin] + CC(C)C[C@H](NC(=O)[C@H](Cc1ccccc1)NC(=O)c1cnccn1)B(O)O [Bortezomib] (partner 0.002 µM)", 0.578),
    ("CCCCCCCCCCCC1=C(O)C(=O)C=C(O)C1=O [Embelin] + CS(=O)(=O)CCNCc1ccc(-c2ccc3ncnc(Nc4ccc(OCc5cccc(F)c5)c(Cl)c4)c3c2)o1 [Lapatinib] (partner 2 µM)", 0.99),
    ("CCCCCCCCCCCC1=C(O)C(=O)C=C(O)C1=O [Embelin] + COc1cccc2cc(-c3nc([C@H]4CC[C@H](C(=O)O)CC4)n4ncnc(N)c34)[nH]c12 [OSI-027] (partner 0.5 µM)", 0.851),
    ("CCCCCCCCCCCC1=C(O)C(=O)C=C(O)C1=O [Embelin] + Nc1nc2[nH]cc(CCc3ccc(C(=O)N[C@@H](CCC(=O)O)C(=O)O)cc3)c2c(=O)[nH]1 [Pemetrexed] (partner 0.2 µM)", 0.385),
    ("CCCCCCCCCCCC1=C(O)C(=O)C=C(O)C1=O [Embelin] + O=C(c1cc(Cc2n[nH]c(=O)c3ccccc23)ccc1F)N1CCN(C(=O)C2CC2)CC1 [Olaparib] (partner 8 µM)", 1.01),
]

Exam item: What value of relative viability has been recorded for this entry: CCCCCCCCCCCC1=C(O)C(=O)C=C(O)C1=O [Embelin] + Nc1ncn([C@H]2C[C@H](O)[C@@H](CO)O2)c(=O)n1 [Decitabine] (partner 2 µM)
Marked response: 0.893

###

Here the recorded relative viability is given for each entry.
# Test system: NCI-H1792
# test-details: relative viability (nuclei count vs DMSO), 5 days (fraction); higher = more cells survive
# conditions-used: first compound 1.265 µM
Give the value as a plain number.

Answered cases to consult:
# compound, relative viability
data = [
    ("COc1cc(N2CCC(C(N)=O)CC2)ccc1Nc1nc(N)c(Cl)c(Nc2ccccc2S(=O)(=O)C(C)C)n1 [HG-5-88-01] + N=C(N)NC(=N)NCCc1ccccc1 [Phenformin] (partner 250 µM)", 0.525),
    ("Clc1ccc(Nc2nnc(Cc3ccncc3)c3ccccc23)cc1 [Vatalanib] + Cc1nc(NC(=O)N2CCC[C@H]2C(N)=O)sc1-c1ccnc(C(C)(C)C(F)(F)F)c1 [Alpelisib] (partner 2 µM)", 0.677),
    ("Clc1ccc(Nc2nnc(Cc3ccncc3)c3ccccc23)cc1 [Vatalanib] + CC(=O)Nc1cccc(-n2c(=O)n(C3CC3)c(=O)c3c(Nc4ccc(I)cc4F)n(C)c(=O)c(C)c32)c1 [Trametinib] (partner 0.02 µM)", 0.399),
]

Please examine the following record next.
Exam item: What value of relative viability has been recorded for this entry: COc1cc(N2CCC(C(N)=O)CC2)ccc1Nc1nc(N)c(Cl)c(Nc2ccccc2S(=O)(=O)C(C)C)n1 [HG-5-88-01] + Nc1nc2[nH]cc(CCc3ccc(C(=O)N[C@@H](CCC(=O)O)C(=O)O)cc3)c2c(=O)[nH]1 [Pemetrexed] (partner 0.2 µM)
Marked response: 0.832

###

# Tested on: NCI-H3122
# test-details: relative viability (nuclei count vs DMSO), 5 days (fraction); higher = more cells survive
# conditions-used: first compound 1.265 µM
Here the recorded relative viability is given for each entry.

Answered cases to consult:
# compound, target-or-system, relative viability
records = [
    ("Clc1ccc(Nc2nnc(Cc3ccncc3)c3ccccc23)cc1 [Vatalanib] + O=C(c1cc(Cc2n[nH]c(=O)c3ccccc23)ccc1F)N1CCN(C(=O)C2CC2)CC1 [Olaparib] (partner 8 µM)", "NCI-H3122", 0.592),
    ("Clc1ccc(Nc2nnc(Cc3ccncc3)c3ccccc23)cc1 [Vatalanib] + Cc1nc(Nc2ncc(C(=O)Nc3c(C)cccc3Cl)s2)cc(N2CCN(CCO)CC2)n1 [Dasatinib] (partner 0.075 µM)", "NCI-H3122", 0.768),
    ("COc1cc(N2CCC(C(N)=O)CC2)ccc1Nc1nc(N)c(Cl)c(Nc2ccccc2S(=O)(=O)C(C)C)n1 [HG-5-88-01] + Cc1cc(Nc2cc(N3CCN(C)CC3)nc(Sc3ccc(NC(=O)C4CC4)cc3)n2)n[nH]1 [Tozasertib] (partner 0.1 µM)", "NCI-H3122", 0.112),
]

Please examine the following record next.
Exam item: Record COc1cc(N2CCC(C(N)=O)CC2)ccc1Nc1nc(N)c(Cl)c(Nc2ccccc2S(=O)(=O)C(C)C)n1 [HG-5-88-01] + CC1(C)CCC(c2ccc(Cl)cc2)=C(CN2CCN(c3ccc(C(=O)NS(=O)(=O)c4ccc(N[C@H](CCN5CCOCC5)CSc5ccccc5)c(S(=O)(=O)C(F)(F)F)c4)cc3)CC2)C1 [Navitoclax] (partner 0.5 µM) : what is its relative viability with NCI-H3122?
Marked response: 0.198

The reported measurements were obtained from the supplement of paper PMC10307832.
